# target of assay: TGFBR2 (human) (UniProt P37173)
# Sequence (P37173 whole entry, looked up): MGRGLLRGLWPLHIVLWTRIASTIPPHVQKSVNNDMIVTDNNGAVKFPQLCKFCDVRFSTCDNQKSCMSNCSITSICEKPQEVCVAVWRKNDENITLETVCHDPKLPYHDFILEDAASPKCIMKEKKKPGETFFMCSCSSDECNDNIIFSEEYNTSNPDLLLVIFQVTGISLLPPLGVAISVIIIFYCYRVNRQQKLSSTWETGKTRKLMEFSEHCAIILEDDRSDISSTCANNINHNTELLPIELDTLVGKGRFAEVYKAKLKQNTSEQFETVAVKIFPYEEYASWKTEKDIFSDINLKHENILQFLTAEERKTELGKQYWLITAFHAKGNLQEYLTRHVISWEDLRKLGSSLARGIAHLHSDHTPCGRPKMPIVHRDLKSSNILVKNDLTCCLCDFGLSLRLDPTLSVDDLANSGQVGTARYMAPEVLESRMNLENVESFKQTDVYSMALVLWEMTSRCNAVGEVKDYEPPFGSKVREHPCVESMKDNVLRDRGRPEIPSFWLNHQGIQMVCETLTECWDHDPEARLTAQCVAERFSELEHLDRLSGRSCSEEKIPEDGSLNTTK
# test method notes: radiometric filter-binding kinase assay, Kinase HotSpot
# test parameters: compound 0.5 µM; ATP 10 µM
measured attribute: residual activity (%)
Give the value in % but do not write % after it.

{"given smiles": "O=C(O)c1ccc2c3c1cccc3c(=O)n1c3ccccc3nc21", "unit descriptor": "%", "reported measurement": 133}
{"given smiles": "N#C/C(=C1/Nc2ccccc2S1)c1ccnc(NCCc2cccnc2)n1", "unit descriptor": "%", "reported measurement": 102}
{"given smiles": "Cn1cc(/C=C2\\C(=O)Nc3ccc(S(N)(=O)=O)cc32)c2ccccc21", "unit descriptor": "%", "reported measurement": 101}
{"given smiles": "N#CCCc1ccc2c(c1)-c1[nH]c3ccc([N+](=O)[O-])cc3c1CC(=O)N2", "unit descriptor": "%", "reported measurement": 10.1}
{"given smiles": "O=S(=O)(NCCNC/C=C/c1ccc(Br)cc1)c1cccc2cnccc12", "unit descriptor": "%", "reported measurement": 92.1}

Task: Entry under review: "Nc1ncnc2c1cnn2-c1ccccc1" . Reported residual activity?
Output: 105

Task: Entry under review: "N/C(=N\N=C/c1ccc(-c2cccc([N+](=O)[O-])c2)o1)N[N+](=O)[O-]" . Reported residual activity?
Output: 123

###

# target of assay: ABL2 (human) (UniProt P42684)
# Sequence (P42684 whole entry, looked up): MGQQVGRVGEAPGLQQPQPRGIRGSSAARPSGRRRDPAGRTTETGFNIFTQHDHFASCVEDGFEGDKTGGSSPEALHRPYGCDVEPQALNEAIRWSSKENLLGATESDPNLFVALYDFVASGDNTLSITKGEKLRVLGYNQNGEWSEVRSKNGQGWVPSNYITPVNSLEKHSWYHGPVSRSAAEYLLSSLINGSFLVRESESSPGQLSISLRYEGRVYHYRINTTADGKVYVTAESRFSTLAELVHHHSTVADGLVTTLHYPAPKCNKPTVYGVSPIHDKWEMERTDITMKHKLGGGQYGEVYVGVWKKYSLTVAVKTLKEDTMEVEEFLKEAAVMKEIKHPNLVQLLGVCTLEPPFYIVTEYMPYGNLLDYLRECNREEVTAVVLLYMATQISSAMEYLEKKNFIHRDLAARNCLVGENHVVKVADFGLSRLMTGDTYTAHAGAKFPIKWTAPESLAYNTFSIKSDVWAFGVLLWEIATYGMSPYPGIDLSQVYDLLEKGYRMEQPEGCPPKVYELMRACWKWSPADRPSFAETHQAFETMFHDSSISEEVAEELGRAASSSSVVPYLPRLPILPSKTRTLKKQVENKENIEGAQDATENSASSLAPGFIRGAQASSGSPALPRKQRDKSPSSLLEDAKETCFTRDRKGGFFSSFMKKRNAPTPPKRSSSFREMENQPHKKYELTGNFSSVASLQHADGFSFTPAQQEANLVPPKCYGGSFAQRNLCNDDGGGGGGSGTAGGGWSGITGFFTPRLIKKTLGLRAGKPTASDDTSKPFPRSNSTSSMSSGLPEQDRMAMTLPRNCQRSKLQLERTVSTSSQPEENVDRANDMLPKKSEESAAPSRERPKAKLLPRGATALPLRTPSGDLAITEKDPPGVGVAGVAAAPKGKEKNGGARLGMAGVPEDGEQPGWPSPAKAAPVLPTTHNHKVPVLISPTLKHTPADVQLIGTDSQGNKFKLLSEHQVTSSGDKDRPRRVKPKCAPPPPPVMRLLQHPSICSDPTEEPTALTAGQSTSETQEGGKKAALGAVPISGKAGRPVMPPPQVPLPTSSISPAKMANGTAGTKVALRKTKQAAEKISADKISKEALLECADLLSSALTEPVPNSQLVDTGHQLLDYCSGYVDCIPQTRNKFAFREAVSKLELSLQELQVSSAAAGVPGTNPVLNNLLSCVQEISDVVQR
# test method notes: radiometric filter-binding kinase assay, Kinase HotSpot
# test parameters: compound 0.5 µM; ATP 10 µM
With a cut-off of 80%, any residual activity strictly below it is called condition met; any residual activity meeting it or above is called condition not met.

// below: answered compounds
{"given smiles": "O=c1[nH]c2ccccc2n1C1CCN(Cc2ccc(-c3nc4cc5[nH]cnc5cc4nc3-c3ccccc3)cc2)CC1", "assigned class": "condition not met"}
{"given smiles": "N#CCCc1ccc2c(c1)-c1[nH]c3ccc([N+](=O)[O-])cc3c1CC(=O)N2", "assigned class": "condition met"}
{"given smiles": "CCc1nc(-c2ccc(OC)cc2)[nH]c1-c1ccncc1", "assigned class": "condition not met"}

Now for a further compound.
Task: Identify whether the compound "COc1cc2c(cc1OC)-c1[nH]nc(Nc3cccc(F)c3)c1C2" records residual activity below 80%.
Output: condition met

###

# target of assay: UniProt:P54753
# Sequence (P54753 whole entry, looked up): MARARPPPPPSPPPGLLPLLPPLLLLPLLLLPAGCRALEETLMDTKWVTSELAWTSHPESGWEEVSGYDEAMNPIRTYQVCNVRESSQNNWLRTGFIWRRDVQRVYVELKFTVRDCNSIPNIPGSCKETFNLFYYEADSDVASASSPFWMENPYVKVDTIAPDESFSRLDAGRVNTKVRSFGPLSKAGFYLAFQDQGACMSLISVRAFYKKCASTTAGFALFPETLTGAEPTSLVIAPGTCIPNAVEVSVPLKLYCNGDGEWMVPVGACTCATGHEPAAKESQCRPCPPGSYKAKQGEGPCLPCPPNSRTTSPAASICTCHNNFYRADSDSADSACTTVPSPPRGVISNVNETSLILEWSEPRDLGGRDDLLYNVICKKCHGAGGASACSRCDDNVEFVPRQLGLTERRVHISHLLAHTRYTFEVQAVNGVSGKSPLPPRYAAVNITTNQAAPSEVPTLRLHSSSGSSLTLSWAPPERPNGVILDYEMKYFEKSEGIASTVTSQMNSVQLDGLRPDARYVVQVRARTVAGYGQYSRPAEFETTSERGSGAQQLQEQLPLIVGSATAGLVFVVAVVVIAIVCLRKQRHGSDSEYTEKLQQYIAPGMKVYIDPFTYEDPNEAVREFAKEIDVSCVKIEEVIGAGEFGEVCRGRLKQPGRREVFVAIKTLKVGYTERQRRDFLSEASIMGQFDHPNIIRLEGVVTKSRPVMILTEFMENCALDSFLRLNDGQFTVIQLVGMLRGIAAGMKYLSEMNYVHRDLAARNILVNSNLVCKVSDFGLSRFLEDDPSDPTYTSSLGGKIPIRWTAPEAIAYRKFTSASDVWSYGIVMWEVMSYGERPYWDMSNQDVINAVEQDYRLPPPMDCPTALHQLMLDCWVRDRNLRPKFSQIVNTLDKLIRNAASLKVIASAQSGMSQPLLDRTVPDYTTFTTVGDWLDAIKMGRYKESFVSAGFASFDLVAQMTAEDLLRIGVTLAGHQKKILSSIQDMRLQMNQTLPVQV
# test method notes: radiometric filter-binding kinase assay, Kinase HotSpot
# test parameters: compound 0.5 µM; ATP 10 µM
measured attribute: residual activity (%)
Give the value in % but do not write % after it.

Below, 3 compounds whose answers are already recorded.
{"given smiles": "N#C/C(=C1/Nc2ccccc2S1)c1ccnc(NCCc2cccnc2)n1", "target of assay": "UniProt:P54753", "unit descriptor": "%", "residual activity": 91}
{"given smiles": "O=C(c1ccccc1)c1ccc(N2CCOCC2)cc1O", "target of assay": "UniProt:P54753", "unit descriptor": "%", "residual activity": 92.2}
{"given smiles": "O=C1NC(=O)c2c1c1c3ccccc3[nH]c1c1[nH]c3cc(Br)ccc3c21", "target of assay": "UniProt:P54753", "unit descriptor": "%", "residual activity": 91.9}

Now let's try a different one.
Task: Entry under review: "COc1cccc(-c2cc(=O)c3ccccc3o2)c1N" . Reported residual activity?
Output: 91.9

###

# target of assay: MET (human) (UniProt P08581)
# Sequence (P08581 whole entry, looked up): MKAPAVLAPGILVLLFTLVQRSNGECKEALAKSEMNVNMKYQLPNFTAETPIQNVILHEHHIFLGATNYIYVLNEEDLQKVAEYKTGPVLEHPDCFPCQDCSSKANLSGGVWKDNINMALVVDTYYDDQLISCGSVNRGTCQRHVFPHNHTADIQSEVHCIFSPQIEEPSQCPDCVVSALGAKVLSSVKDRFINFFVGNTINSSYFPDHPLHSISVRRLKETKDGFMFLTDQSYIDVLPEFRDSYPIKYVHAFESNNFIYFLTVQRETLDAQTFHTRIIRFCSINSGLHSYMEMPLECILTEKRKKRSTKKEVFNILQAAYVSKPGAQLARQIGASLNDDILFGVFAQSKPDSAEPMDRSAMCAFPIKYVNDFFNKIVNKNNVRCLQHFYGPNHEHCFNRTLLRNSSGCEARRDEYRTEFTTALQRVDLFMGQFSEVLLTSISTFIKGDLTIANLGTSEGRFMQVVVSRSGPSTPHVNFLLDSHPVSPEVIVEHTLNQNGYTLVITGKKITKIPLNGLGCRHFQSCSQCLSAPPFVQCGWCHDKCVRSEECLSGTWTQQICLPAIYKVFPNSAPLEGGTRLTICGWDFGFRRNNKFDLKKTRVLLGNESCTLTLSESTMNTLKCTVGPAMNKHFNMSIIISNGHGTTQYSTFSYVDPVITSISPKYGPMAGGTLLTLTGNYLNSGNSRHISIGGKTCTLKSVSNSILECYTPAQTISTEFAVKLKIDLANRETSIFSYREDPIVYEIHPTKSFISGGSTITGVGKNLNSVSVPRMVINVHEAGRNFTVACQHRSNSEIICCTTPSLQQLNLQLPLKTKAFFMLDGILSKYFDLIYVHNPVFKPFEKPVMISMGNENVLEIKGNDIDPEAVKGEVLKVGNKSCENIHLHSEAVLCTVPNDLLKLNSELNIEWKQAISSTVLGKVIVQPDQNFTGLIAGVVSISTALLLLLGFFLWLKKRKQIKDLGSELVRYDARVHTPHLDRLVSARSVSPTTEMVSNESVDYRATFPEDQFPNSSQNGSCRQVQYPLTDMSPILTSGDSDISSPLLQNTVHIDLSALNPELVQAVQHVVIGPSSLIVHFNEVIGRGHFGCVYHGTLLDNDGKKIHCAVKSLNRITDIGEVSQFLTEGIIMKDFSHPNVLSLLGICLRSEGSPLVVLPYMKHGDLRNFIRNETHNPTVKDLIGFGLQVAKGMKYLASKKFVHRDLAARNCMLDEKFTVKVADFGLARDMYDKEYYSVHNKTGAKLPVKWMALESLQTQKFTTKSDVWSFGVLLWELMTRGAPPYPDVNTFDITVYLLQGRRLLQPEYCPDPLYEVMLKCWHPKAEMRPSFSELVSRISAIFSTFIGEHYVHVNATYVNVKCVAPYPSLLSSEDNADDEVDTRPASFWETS
# test method notes: radiometric filter-binding kinase assay, Kinase HotSpot
# test parameters: compound 0.5 µM; ATP 10 µM
measured attribute: residual activity (%)
Give the value in % but do not write % after it.

Below, 3 compounds whose answers are already recorded.
{"given smiles": "CCOc1cc2ncnc(Nc3cccc(Br)c3)c2cc1OCC", "residual activity [%]": 78.6}
{"given smiles": "COc1cc2ncnc(Nc3ccc(O)c(Br)c3)c2cc1OC", "residual activity [%]": 96.4}
{"given smiles": "N#C/C(=C1/Nc2ccccc2S1)c1ccnc(NCCc2cccnc2)n1", "residual activity [%]": 105}

Now let's try a different one.
Task: Entry under review: "Nc1ncnc2c1cnn2-c1ccccc1" . Reported residual activity?
Output: 97.1

###

# target of assay: PRKD1 (human)
# test method notes: radiometric filter-binding kinase assay, Kinase HotSpot
# test parameters: compound 0.5 µM; ATP 10 µM
measured attribute: residual activity
Please state the value followed by its unit.

{"given smiles": "Cc1cc(Nc2nc(-c3ccccc3)nc3ccccc23)n[nH]1", "residual activity": "77.4%"}
{"given smiles": "N#CCCc1ccc2c(c1)-c1[nH]c3ccc([N+](=O)[O-])cc3c1CC(=O)N2", "residual activity": "87.5%"}
{"given smiles": "N#Cc1c(NC(=O)c2cccc3ccccc23)sc2c1CCCC2", "residual activity": "101%"}
{"given smiles": "CCOc1cc2ncnc(Nc3cccc(Br)c3)c2cc1OCC", "residual activity": "95.4%"}
{"given smiles": "FC(F)(F)c1ccc(/C=C/c2nc(COc3ccc(CCCCn4ccnn4)cc3)co2)cc1", "residual activity": "93.2%"}

Task: Entry under review: "O=C1NC(=O)c2c1c1c3ccccc3[nH]c1c1[nH]c3cc(Br)ccc3c21" . Reported residual activity?
Output: 51.9%

Task: Entry under review: "COc1cccc(-c2cc(=O)c3ccccc3o2)c1N" . Reported residual activity?
Output: 103%

Task: Entry under review: "Nc1ncnc2c1cnn2-c1ccccc1" . Reported residual activity?
Output: 98.1%

Task: Entry under review: "COc1cc2c(cc1OC)-c1[nH]nc(Nc3cccc(F)c3)c1C2" . Reported residual activity?
Output: 93.6%

Task: Entry under review: "O=c1c(-c2ccc(F)cc2)c(-c2ccncc2)[nH]n1-c1ccc(Cl)cc1" . Reported residual activity?
Output: 84.7%

Task: Entry under review: "O=c1cc(N2CCOCC2)oc2c(-c3ccccc3)cccc12" . Reported residual activity?
Output: 98.3%

Task: Entry under review: "O=C(O)c1ccc2c3c1cccc3c(=O)n1c3ccccc3nc21" . Reported residual activity?
Output: 86.2%

Task: Entry under review: "O=C1NC(=O)c2cc(Nc3ccc(F)cc3)c(Nc3ccc(F)cc3)cc21" . Reported residual activity?
Output: 92.2%

Task: Entry under review: "N#C/C(=C1/Nc2ccccc2S1)c1ccnc(NCCc2cccnc2)n1" . Reported residual activity?
Output: 82.4%

Task: Entry under review: "COc1cc2ncnc(Nc3ccc(O)c(Br)c3)c2cc1OC" . Reported residual activity?
Output: 70.1%

Task: Entry under review: "c1ccc(-c2cnc(Nc3ccc(OCCN4CCCC4)cc3)s2)cc1" . Reported residual activity?
Output: 78.4%

###

Listed here: items and their measured residual activity.
# target of assay: CHEK1 (human)
# test method notes: radiometric filter-binding kinase assay, Kinase HotSpot
# test parameters: compound 0.5 µM; ATP 10 µM
Give the value in % but do not write % after it.

Below, 5 compounds whose answers are already recorded.
{"given smiles": "CCCCc1c(-c2ccc(O)cc2)[nH]c2nccnc12", "target of assay": "CHEK1 (human)", "measured attribute": "residual activity", "unit descriptor": "%", "reported measurement": 92.9}
{"given smiles": "O=C1NC(=O)c2c1c1c3ccccc3[nH]c1c1[nH]c3cc(Br)ccc3c21", "target of assay": "CHEK1 (human)", "measured attribute": "residual activity", "unit descriptor": "%", "reported measurement": 79.7}
{"given smiles": "Cn1cc(/C=C2\\C(=O)Nc3ccc(S(N)(=O)=O)cc32)c2ccccc21", "target of assay": "CHEK1 (human)", "measured attribute": "residual activity", "unit descriptor": "%", "reported measurement": 19.5}
{"given smiles": "O=C1NC(=O)c2cc(Nc3ccc(F)cc3)c(Nc3ccc(F)cc3)cc21", "target of assay": "CHEK1 (human)", "measured attribute": "residual activity", "unit descriptor": "%", "reported measurement": 104}
{"given smiles": "COc1cccc(-c2cc(=O)c3ccccc3o2)c1N", "target of assay": "CHEK1 (human)", "measured attribute": "residual activity", "unit descriptor": "%", "reported measurement": 103}

Task: Test system CHEK1 (human); read-out residual activity; what value for "Nc1ncnc2c1cnn2-c1ccccc1" ?
Output: 92.5

Task: Test system CHEK1 (human); read-out residual activity; what value for "O=c1c2ccccc2[nH]c(=S)n1CCN1CCC(=C(c2ccc(F)cc2)c2ccc(F)cc2)CC1" ?
Output: 108

Task: Test system CHEK1 (human); read-out residual activity; what value for "FC(F)(F)c1ccc(/C=C/c2nc(COc3ccc(CCCCn4ccnn4)cc3)co2)cc1" ?
Output: 108

Task: Test system CHEK1 (human); read-out residual activity; what value for "c1ccc(-c2cnc(Nc3ccc(OCCN4CCCC4)cc3)s2)cc1" ?
Output: 86.6

Task: Test system CHEK1 (human); read-out residual activity; what value for "Cc1cc(Nc2nc(-c3ccccc3)nc3ccccc23)n[nH]1" ?
Output: 69.1

Task: Test system CHEK1 (human); read-out residual activity; what value for "CCc1nc(-c2ccc(OC)cc2)[nH]c1-c1ccncc1" ?
Output: 98.6

Task: Test system CHEK1 (human); read-out residual activity; what value for "COc1cc2c(N3CCN(C(=O)Nc4ccc(OC(C)C)cc4)CC3)ncnc2cc1OCCCN1CCCCC1" ?
Output: 108

Task: Test system CHEK1 (human); read-out residual activity; what value for "N#Cc1c(NC(=O)c2cccc3ccccc23)sc2c1CCCC2" ?
Output: 104

Task: Test system CHEK1 (human); read-out residual activity; what value for "O=S(=O)(NCCNC/C=C/c1ccc(Br)cc1)c1cccc2cnccc12" ?
Output: 90.8
